# System: rhIL-2 stimulated STAT5 phosphorylation in isolated human T cells
# test method notes: Human T Cell Assay: Inhibition of pSTAT5
# Format: cell-based
# Excerpt: Human T Cell Assay: Inhibition of pSTAT5 An assay measuring the efficacy of JAK inhibitors on the functional response of recombinant human interleukin-2 (rhIL-2) stimulated STAT5 phosphorylation in isolated human T cells. Human whole blood from individual donors was collected from the phlebotomy unit on-site. […] Data were collected and transformed into percent inhibition and calculated using the following formula: […]
Structures can show the parent of a compound that is named as a salt.
With a cut-off of 200 nM, any IC50 strictly below it is called Criterion met; any IC50 meeting it or above is called Criterion not met.

Examples with answers:
# molecule, classification
data = [
    ("Cc1ccc(NC(=O)c2n[nH]c3cc(-c4cc(F)c(O)cc4CC(F)(F)F)nc(NCc4ccccc4N(C)S(C)(=O)=O)c23)cn1", "Criterion met"),
    ("CN(c1ccccc1CNc1nc(-c2cc(F)c(O)cc2CC(F)(F)F)nc2[nH]nc(C(N)=O)c12)S(C)(=O)=O", "Criterion not met"),
    ("CN(c1ccc(O)cc1CNc1nc(-c2cc(F)c(O)cc2CC(F)(F)F)cc2[nH]nc(C(N)=O)c12)S(C)(=O)=O", "Criterion not met"),
    ("CCc1cc(O)c(F)cc1-c1cc2[nH]ncc2c(NCc2c(F)cccc2N(C)S(C)(=O)=O)n1 [Example 134, hydrochloride]", "Criterion not met"),
    ("CCc1cc(O)c(F)cc1-c1cc2[nH]ncc2c(NCc2ccccc2N(C)S(C)(=O)=O)n1", "Criterion met"),
]

Below: the item to evaluate.
In: Confirm or reject: IC50 of CCc1cc(O)c(F)cc1-c1nc(NCc2ccccc2N(C)S(C)(=O)=O)c2c(C(=O)NC)n[nH]c2n1 lies strictly below 200 nM
Out: Criterion met

---

Field: pIC50. Provide a value for each of the compounds that follow.
# Tested on: rhIFNγ stimulated STAT-3 phosphorylation in the A549 human epithelial cell line
# test method notes: A549 Cell Assay: Inhibition of pSTAT3
# Type: cell-based
# run conditions: Homo sapiens; A549 cells
Answers are plain numbers, as −log10 of the molar value.

# batch: return pIC50 for each of the 4 compounds below
1. CCN(c1nccnc1CNc1nc(-c2cc(F)c(O)cc2CC(F)(F)F)cc2[nH]nc(C(=O)NC)c12)S(C)(=O)=O [Example 45]
2. CN(c1ccccc1CNc1nc(-c2cc(F)c(O)cc2CC(F)(F)F)cc2[nH]ncc12)S(C)(=O)=O [Example 148]
3. CCN(c1ncccc1CNc1nc(-c2cc(F)c(O)cc2CC(F)(F)F)cc2[nH]nc(C(N)=O)c12)S(C)(=O)=O [Example 52]
4. CCc1cc(O)c(F)cc1-c1cc2[nH]nc(C(=O)NC)c2c(NCc2ccc(O)cc2N(C)S(C)(=O)=O)n1 [Example 29]

Out:
[7.33, 7.83, 7.13, 7.06]

---

# measurement target: TYK2 (Homo sapiens (Human))
# Sequence (P29597 whole entry): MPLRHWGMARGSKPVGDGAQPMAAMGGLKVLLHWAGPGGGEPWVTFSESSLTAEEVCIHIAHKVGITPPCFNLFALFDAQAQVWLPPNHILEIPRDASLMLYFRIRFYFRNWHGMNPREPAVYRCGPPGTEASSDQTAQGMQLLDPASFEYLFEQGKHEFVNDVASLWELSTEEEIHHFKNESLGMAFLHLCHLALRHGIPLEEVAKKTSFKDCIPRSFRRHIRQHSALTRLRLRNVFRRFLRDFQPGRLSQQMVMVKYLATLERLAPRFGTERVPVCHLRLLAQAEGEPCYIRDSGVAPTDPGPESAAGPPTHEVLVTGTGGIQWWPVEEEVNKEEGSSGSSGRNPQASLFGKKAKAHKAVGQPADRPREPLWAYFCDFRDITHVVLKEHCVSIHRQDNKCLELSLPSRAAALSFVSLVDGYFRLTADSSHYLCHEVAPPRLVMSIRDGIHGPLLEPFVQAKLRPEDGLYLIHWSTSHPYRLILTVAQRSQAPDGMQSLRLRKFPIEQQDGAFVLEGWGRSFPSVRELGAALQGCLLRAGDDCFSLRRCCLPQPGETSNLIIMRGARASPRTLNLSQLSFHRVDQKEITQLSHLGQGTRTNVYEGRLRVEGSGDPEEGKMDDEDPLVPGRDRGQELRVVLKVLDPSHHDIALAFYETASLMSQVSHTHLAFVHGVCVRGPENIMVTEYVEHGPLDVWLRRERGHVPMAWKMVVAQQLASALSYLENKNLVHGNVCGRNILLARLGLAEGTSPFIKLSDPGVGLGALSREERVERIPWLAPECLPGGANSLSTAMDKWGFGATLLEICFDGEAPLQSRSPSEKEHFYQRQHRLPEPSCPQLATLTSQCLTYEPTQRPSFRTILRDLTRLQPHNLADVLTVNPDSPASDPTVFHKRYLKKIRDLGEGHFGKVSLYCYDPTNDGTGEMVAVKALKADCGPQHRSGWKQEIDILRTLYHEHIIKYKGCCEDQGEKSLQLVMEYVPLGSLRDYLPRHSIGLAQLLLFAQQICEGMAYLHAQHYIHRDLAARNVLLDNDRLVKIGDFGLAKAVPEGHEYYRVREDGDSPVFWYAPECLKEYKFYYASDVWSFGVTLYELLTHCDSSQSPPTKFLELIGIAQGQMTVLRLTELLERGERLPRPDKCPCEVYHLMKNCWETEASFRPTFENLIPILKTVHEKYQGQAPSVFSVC
Structures can show the parent of a compound that is named as a salt.
With a cut-off of 200 nM, any IC50 strictly below it is called True; any IC50 meeting it or above is called False.

Examples with answers:
# compound, classification
records = [
    ("CN(c1ccccc1CNc1nc(-c2cc(F)c(O)cc2CC(F)(F)F)cc2[nH]nc(C(N)=O)c12)S(=O)(=O)c1ccccc1 [Example 26]", "False"),
    ("CCS(=O)(=O)N(C)c1ccccc1CNc1nc(-c2cc(F)c(O)cc2CC(F)(F)F)cc2[nH]nc(C(=O)NC)c12 [Example 13]", "True"),
    ("CCc1cc(O)ccc1-c1cc2[nH]ncc2c(N2CCc3c(cccc3C(=O)NCc3ccccc3)C2)n1 [Example 117, formate]", "False"),
    ("CCc1cc(O)c(F)cc1-c1cc2[nH]nc(C(=O)NC)c2c(NCc2ccccc2N(CC)S(C)(=O)=O)n1 [Example 9]", "True"),
    ("CCc1cc(O)c(F)cc1-c1cc2[nH]nc(C(=O)NC)c2c(NCc2cc(C)ccc2N(C)S(C)(=O)=O)n1 [Example 21]", "True"),
]

In: Confirm or reject: IC50 of CNC(=O)c1n[nH]c2cc(-c3cc(F)c(O)cc3CC(F)(F)F)nc(NCc3ccc(O)cc3N(C)S(C)(=O)=O)c12 [Example 33] lies strictly below 200 nM
Out: False

In: Confirm or reject: IC50 of CNC(=O)c1n[nH]c2cc(-c3cc(F)c(O)cc3CC(F)(F)F)nc(NCc3ccccc3N(C)S(C)(=O)=O)c12 [Example 20] lies strictly below 200 nM
Out: True

In: Confirm or reject: IC50 of CNC(=O)c1n[nH]c2cc(-c3cc(F)c(O)cc3CC(F)(F)F)nc(NCc3cc(F)ccc3N(C)S(C)(=O)=O)c12 [Example 14] lies strictly below 200 nM
Out: True

In: Confirm or reject: IC50 of CCN(c1ccccc1CNc1nc(-c2cc(F)c(O)cc2CC(F)(F)F)cc2[nH]nc(C(=O)NC)c12)S(C)(=O)=O [Example 12] lies strictly below 200 nM
Out: True

In: Confirm or reject: IC50 of Cc1cnc(N(C)S(C)(=O)=O)c(CNc2nc(-c3cc(F)c(O)cc3CC(F)(F)F)cc3[nH]nc(C(N)=O)c23)c1 [Example 86] lies strictly below 200 nM
Out: False

In: Confirm or reject: IC50 of CNC(=O)c1n[nH]c2cc(-c3cc(F)c(O)cc3CC(F)(F)F)nc(NCc3cc(O)ccc3N(C)S(=O)(=O)c3cccnc3)c12 [Example 54] lies strictly below 200 nM
Out: True

In: Confirm or reject: IC50 of CNC(=O)c1n[nH]c2cc(-c3cc(F)c(O)cc3CC(F)(F)F)nc(NCc3ccccc3N(CCO)S(C)(=O)=O)c12 [Example 24] lies strictly below 200 nM
Out: True
